// provenance: patent US11077100B2

- Target system: human P2X7 (Homo sapiens (Human), UniProt Q99572)
- Sequence (Q99572 whole entry): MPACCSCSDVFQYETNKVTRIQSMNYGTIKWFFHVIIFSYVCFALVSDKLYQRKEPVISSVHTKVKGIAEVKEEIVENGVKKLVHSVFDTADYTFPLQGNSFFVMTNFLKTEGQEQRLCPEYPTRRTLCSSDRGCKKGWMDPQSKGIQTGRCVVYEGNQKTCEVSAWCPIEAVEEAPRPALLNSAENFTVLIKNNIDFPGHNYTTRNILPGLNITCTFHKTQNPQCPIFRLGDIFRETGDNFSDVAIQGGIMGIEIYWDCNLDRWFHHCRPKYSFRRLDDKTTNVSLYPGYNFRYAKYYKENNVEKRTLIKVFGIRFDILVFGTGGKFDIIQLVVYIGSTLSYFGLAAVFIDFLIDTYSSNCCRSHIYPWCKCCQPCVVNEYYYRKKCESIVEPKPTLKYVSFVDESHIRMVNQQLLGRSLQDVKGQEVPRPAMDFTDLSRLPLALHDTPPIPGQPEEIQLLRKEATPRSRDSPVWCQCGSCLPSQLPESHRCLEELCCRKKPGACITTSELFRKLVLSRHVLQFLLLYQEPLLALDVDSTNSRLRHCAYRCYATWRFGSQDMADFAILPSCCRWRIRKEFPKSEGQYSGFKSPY
- Procedure text: Human P2X7 functional assay (Ca2+ influx, Fluo-4, FDSS)
- Measurement conditions: antagonistic activity with respect to the human P2X7 receptor; BzATP final concentration 80 microM
Value kind: IC50

Example compounds with recorded IC50:
[
  {
    "Compound": "O=C(NCc1c(Cl)cc(Cl)cc1CO)[C@]1(F)CC[C@@](O)(CO)c2ncccc21 [Example 316]",
    "IC50": "< 50 nM"
  },
  {
    "Compound": "Cc1cc(Cl)cc(Cl)c1CNC(=O)C1(F)CCC(O)(CO)c2ncccc21 (centres unmarked) [Example 34]",
    "IC50": "< 50 nM"
  },
  {
    "Compound": "O=C(NCc1c(F)cc(Cl)cc1Cl)[C@@H]1CC[C@@H](O)c2ncccc21 [Example 91]",
    "IC50": "101 to 300 nM"
  },
  {
    "Compound": "O=C(NCc1cccc(Cl)c1F)[C@]1(F)CC[C@H](O)c2ncccc21 [Example 190]",
    "IC50": "< 50 nM"
  },
  {
    "Compound": "CN1CCO[C@]2(CC[C@@](F)(C(=O)NCc3ccc(Cl)cc3Cl)c3cccnc32)C1 [Example 290]",
    "IC50": "< 50 nM"
  },
  {
    "Compound": "O=C(NCc1cccc(Cl)c1Cl)C1(F)CCC(O)(CO)c2ncccc21 (centres unmarked) [Example 36]",
    "IC50": "< 50 nM"
  },
  {
    "Compound": "O=C(NCc1ccc(F)cc1Cl)[C@H]1CC[C@H](O)c2ncccc21 [Example 67]",
    "IC50": "101 to 300 nM"
  },
  {
    "Compound": "O=C(NCc1cccc(C(F)(F)F)c1Cl)C1CC(O)c2ncccc21 (centres unmarked) [Example 27]",
    "IC50": "< 50 nM"
  }
]

IC50 reported for this compound Cc1cnc2c(c1)[C@](F)(C(=O)NCc1ccc(Cl)cc1Cl)CC[C@@H]2O [Example 243] : 301 to 1000 nM

IC50 reported for this compound O=C(NCc1c(Cl)cc(C(F)(F)F)cc1Cl)[C@@]1(F)CC[C@H](O)c2ncccc21 [Example 112] : 101 to 300 nM

IC50 reported for this compound Cc1cc(Cl)cc(Cl)c1CNC(=O)C1CC(O)c2ncccc21 (centres unmarked) [Example 26] : < 50 nM

IC50 reported for this compound O=C(NCc1ccc(F)cc1Cl)[C@]1(F)CC[C@@](O)(CSCCO)c2ncccc21 [Example 289] : < 50 nM

IC50 reported for this compound Cc1cc(Cl)cc(Cl)c1CNC(=O)C1CC(=O)c2ncccc21 (centres unmarked) [Example 16] : < 50 nM

IC50 reported for this compound O=C(NCc1c(Cl)cc(Cl)cc1CO)[C@]1(F)CC[C@H](O)c2ncccc21 [Example 131] : < 50 nM

IC50 reported for this compound O=C(NCc1cccc(C(F)(F)F)c1Cl)C1(O)CCC(O)c2ncccc21 (centres unmarked) [Example 25] : 101 to 300 nM

IC50 reported for this compound CSC[C@]1(O)CC[C@@](F)(C(=O)NCc2ccc(F)cc2Cl)c2cccnc21 [Example 288] : < 50 nM

IC50 reported for this compound O=C1CC[C@@](F)(C(=O)NCc2ccc(F)cc2Cl)c2cccnc21 [Example 249] : 50 to 100 nM

IC50 reported for this compound O=C(NCc1c(F)cccc1Cl)[C@]1(F)CC[C@H](O)c2ncccc21 [Example 171] : < 50 nM

IC50 reported for this compound O=C(NCc1c(Cl)cccc1Cl)[C@@]1(F)CC[C@@H](O)c2ncccc21 [Example 138] : 101 to 300 nM

* * *

- Target system: human P2X7 (Homo sapiens (Human), UniProt Q99572)
- Procedure text: Human P2X7 functional assay (Ca2+ influx, Fluo-4, FDSS)
- Measurement conditions: antagonistic activity with respect to the human P2X7 receptor; BzATP final concentration 80 microM
pIC50: −log10 of the molar value.
Value kind: pIC50

Example compounds with recorded pIC50:
[
  {
    "Compound": "O=C(NCc1ccc(Cl)cc1C(F)(F)F)[C@]1(F)CC[C@H](O)c2ncccc21 [Example 157]",
    "Reported result": "> 7.30"
  },
  {
    "Compound": "O=C(NCc1ccc(F)c(Cl)c1F)[C@]1(F)CC[C@@](O)(CO)c2ncccc21 [Example 323]",
    "Reported result": "6.52 to 7.00"
  },
  {
    "Compound": "N[C@@]1(CO)CC[C@@](F)(C(=O)NCc2ccc(Cl)cc2Cl)c2cccnc21 (relative stereo) [Example 60]",
    "Reported result": "6.52 to 7.00"
  },
  {
    "Compound": "O=C(NCc1ccc(Br)cc1Cl)[C@@]1(F)CC[C@@H](O)c2ncccc21 [Example 153]",
    "Reported result": "> 7.30"
  },
  {
    "Compound": "O=C(NCc1ccc(F)c(F)c1F)[C@@H]1CC[C@H](O)c2ncccc21 [Example 72]",
    "Reported result": "> 7.30"
  }
]

pIC50 reported for this compound O=C(N[C@H]1C[C@@H]1c1ccccc1)[C@]1(F)CC[C@H](O)c2ncccc21 [Example 215] : 6.52 to 7.00

pIC50 reported for this compound O=C(NCc1c(Cl)ccc(Cl)c1Cl)[C@]1(F)CC[C@H](O)c2ncccc21 [Example 165] : > 7.30

pIC50 reported for this compound O=C(NCc1cccc(F)c1C(F)(F)F)[C@]1(F)CC[C@H](O)c2ncccc21 [Example 178] : > 7.30

pIC50 reported for this compound C[C@]1(O)CC[C@@](F)(C(=O)NCc2ccc(F)c(F)c2F)c2cccnc21 [Example 258] : > 7.30

pIC50 reported for this compound O=C(N[C@@H]1CCc2ccccc21)[C@]1(F)CC[C@H](O)c2ncccc21 [Example 196] : > 7.30

pIC50 reported for this compound O=C1CC[C@](F)(C(=O)NCc2cccc(C(F)(F)F)c2Cl)c2cccnc21 [Example 246] : > 7.30

pIC50 reported for this compound O=C(NC1COc2ccccc2C1)[C@]1(F)CC[C@H](O)c2ncccc21 (stereo partly shown) [Example 233] : 6.52 to 7.00

pIC50 reported for this compound Cc1ccc(Cl)c(CNC(=O)[C@]2(F)CC[C@H](O)c3ncccc32)c1F [Example 216] : 6.52 to 7.00

pIC50 reported for this compound O=C(NCc1cccc(Cl)c1Cl)[C@@]1(F)CC[C@@H](O)c2ncccc21 [Example 158] : > 7.30

pIC50 reported for this compound O=C(NCc1ccc(Cl)c(Cl)c1)[C@]1(F)CC[C@H](O)c2ncccc21 [Example 197] : > 7.30

pIC50 reported for this compound C[C@H](NC(=O)[C@]1(F)CC[C@H](O)c2ncccc21)c1ccc(Cl)c(Cl)c1Cl [Example 168] : 6.52 to 7.00

pIC50 reported for this compound O=C(NCc1cccc(C(F)(F)F)c1Cl)[C@H]1CC[C@H](O)c2ncccc21 [Example 86] : 6.52 to 7.00

pIC50 reported for this compound O=C(NCc1ccc(F)cc1C(F)(F)F)[C@@]1(F)CC[C@@H](O)c2ncccc21 [Example 143] : 6.00 to 6.52

pIC50 reported for this compound C[C@]1(O)CC[C@@](F)(C(=O)NCc2ccc(Cl)cc2Cl)c2cccnc21 [Example 256] : > 7.30

pIC50 reported for this compound O=C(NCc1ccc(F)c(Cl)c1F)[C@]1(F)CC[C@H](O)c2ncccc21 [Example 185] : > 7.30

pIC50 reported for this compound O=C(NCc1ccc(F)c(F)c1F)[C@@]1(F)CC[C@@H](O)c2ncccc21 [Example 136] : 6.52 to 7.00

pIC50 reported for this compound O=C(NCc1ccc(F)cc1Cl)[C@]1(F)CC[C@@](O)(CS(=O)(=O)CCO)c2ncccc21 [Example 301] : 7.00 to 7.30

* * *

The compounds listed here are annotated with their IC50.
- Target system: human P2X7 (Homo sapiens (Human))
- Procedure text: Human P2X7 functional assay (Ca2+ influx, Fluo-4, FDSS)
- Measurement conditions: antagonistic activity with respect to the human P2X7 receptor; BzATP final concentration 80 microM

Example compounds with recorded IC50:
[
  {
    "Compound": "COCC1(O)CCC(F)(C(=O)NCc2c(C)cc(Cl)cc2Cl)c2cccnc21 (centres unmarked)",
    "Value kind": "IC50",
    "Reported result": "< 50 nM"
  },
  {
    "Compound": "Cc1cc(Cl)cc(Cl)c1CNC(=O)C1(F)CCC(=O)c2ncccc21 (centres unmarked)",
    "Value kind": "IC50",
    "Reported result": "< 50 nM"
  },
  {
    "Compound": "O=C(NCc1ccc(Cl)cc1F)[C@]1(F)CC[C@@](O)(CO)c2ncccc21",
    "Value kind": "IC50",
    "Reported result": "101 to 300 nM"
  },
  {
    "Compound": "COCc1cc(Cl)cc(Cl)c1CNC(=O)C1CCC(O)c2ncccc21 (centres unmarked)",
    "Value kind": "IC50",
    "Reported result": "< 50 nM"
  }
]

Shifting focus to the compound that follows.
IC50 reported for this compound O=C(NCc1cccc(Cl)c1Cl)C1CCC(O)c2ncccc21 (centres unmarked) : < 50 nM
